system: rodent lifetime carcinogenesis bioassay, tumor incidence TD50; assay: carcinogenic potency in animals, long-term in vivo studies, CPDB compilation (AID 1745844); conditions: mouse; strain Swiss albino; females; in drinking water; site: liver; lesion: several types; types named in the paper; dosed 112 weeks; study length 112 weeks
Measurement name: TD50 (mg/kg/day)
Provide only the numeric value, understood in mg/kg/day.

Task: So what's the measured TD50 for this one? NNc1ccccc1
Output: 68.6

====

system: rodent lifetime carcinogenesis bioassay, tumor incidence TD50; assay: carcinogenic potency in animals, long-term in vivo studies, CPDB compilation (AID 1745844); details: mouse; strain Swiss/ICR; males; inhaled; site: lung; lesion: adenoma; dosed 78 weeks; study length 82 weeks
The source made the active and inactive calls. The rule behind the calls is not given here.
Measurement name: TD50

Task: Name the reported TD50 value associated with the compound FC(F)OC(F)(F)C(F)Cl (stereo unspecified)
Output: 60900 mg/kg/day (inactive)
